- Study Target: MNK1 (Homo sapiens)
- Protocol Summary: In vitro MNK kinase assay (Caliper LabChip mobility shift)
- Format: biochemical
- Study Conditions: enzymatic, 1.2 mM ATP; read-out: IC50 Mnk1
pIC50: −log10 of the molar value.
Item-by-item account of pIC50

| Mol | pIC50 |
| --- | --- |
| CC(C)(C)N1CCN(C(=O)c2ccc(-c3cn4c(-c5ccc(C#N)cc5)cnc4cn3)cc2)CC1 | > 6.00 |
| CN1CCC(C2CCN(C(=O)c3ccc(-c4ccc5ncc(-c6ccc(C#N)cc6)n5c4)cc3)CC2)CC1 | > 7.00 |
| N#Cc1ccc(-c2cnc3cnc(-c4ccc(C(=O)N5CCN(C6CC6)CC5)cc4)cn23)cc1 | > 6.00 |
| N#Cc1ccc(-c2cnn3ccc(-c4ccc(C(=O)N5CCOCC5)c(O)c4)nc23)cc1 | > 7.00 |
